biological target: KRAS WT (Homo sapiens (Human)); assay: KRAS WT Biochemical Assay, BODIPY-GDP Exchange TR-FRET (Example 502; 0.06 nM KRAS WT, 15 nM GDP, 300 nM SOS1, 120-minute incubation); settings: read-out: KRas HTRF IC50
IC50 under 0.1 µM gets Yes, anything at or over 0.1 µM gets No.

Solved cases below.
[
  {
    "Compound": "Cc1c(F)c(N)cc(-c2nc3c4c(nc(OCC5CN(CC(F)F)C5)nc4c2F)N2C[C@H]4CC[C@H](N4)[C@H]2[C@H](C)O3)c1C(F)(F)F",
    "Label Value": "No"
  },
  {
    "Compound": "Cc1cc(N)c(F)c(-c2nc3c4c(ncnc4c2Cl)N2C[C@H]4CC[C@H](N4)[C@H]2[C@H](C)O3)c1C(F)(F)F [Compound 93]",
    "Label Value": "No"
  },
  {
    "Compound": "Cc1c(F)c(N)cc(-c2nc3c4c(nc(OC[C@]56C[C@H](F)CN5C[C@H](F)C6)nc4c2F)N2C[C@H]4CC[C@H](N4)[C@H]2[C@H](C)O3)c1C(F)(F)F",
    "Label Value": "Yes"
  },
  {
    "Compound": "Cc1c(F)c(N)cc(-c2nc3c4c(nc(OC[C@@H]5CC[C@@H]6CC(F)(F)CCN65)nc4c2F)N2C[C@H]4CC[C@H](N4)[C@H]2[C@H](C)O3)c1C(F)(F)F (single isomer, unassigned) [119 (isomer 1)]",
    "Label Value": "No"
  },
  {
    "Compound": "Cc1c(F)c(N)cc(-c2nc3c4c(nc(OC[C@@H]5CC[C@H]6COCCN65)nc4c2F)N2C[C@H]4CC[C@H](N4)[C@H]2[C@H](C)O3)c1Cl",
    "Label Value": "No"
  }
]

Does the reported IC50 of Cc1c(F)c(N)cc(-c2nc3c4c(nc(OCCCN5C[C@@H]6C[C@H]5CO6)nc4c2F)N2C[C@H]4CC[C@H](N4)[C@H]2[C@H](C)O3)c1C(F)(F)F stay below 0.1 µM? Yes

----------
molecular target: KRAS WT (Homo sapiens (Human), UniProt P01116); experiment: KRAS WT Biochemical Assay, BODIPY-GDP Exchange TR-FRET (Example 502; 0.06 nM KRAS WT, 15 nM GDP, 300 nM SOS1, 120-minute incubation); settings: read-out: KRas HTRF IC50
Sequence (P01116-2 other isoform, or with tags, fused parts or gaps): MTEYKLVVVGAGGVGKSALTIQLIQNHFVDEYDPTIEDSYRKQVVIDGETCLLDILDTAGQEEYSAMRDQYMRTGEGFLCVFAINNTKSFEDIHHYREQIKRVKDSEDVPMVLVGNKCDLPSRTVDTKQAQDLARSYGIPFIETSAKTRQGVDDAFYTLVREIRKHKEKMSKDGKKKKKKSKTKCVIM
Observed Property: IC50
Don't forget the unit after the value.

Previously resolved entries follow.
[
  {
    "Compound": "Cc1cc(-c2nc3c4c(nc(OC[C@@]56CCCN5C[C@H](F)C6)nc4c2F)N2C[C@H]4CC[C@H](N4)[C@H]2[C@H](C)O3)cc(N)c1F [Compound 13]",
    "Target Under Test": "KRAS WT (Homo sapiens (Human), UniProt P01116)",
    "IC50": "1.77 µM"
  },
  {
    "Compound": "Cc1c(F)c(N)cc(-c2nc3c4c(nc(OC[C@]56CCCN5C[C@H](F)[C@@H]6F)nc4c2F)N2C[C@H]4CC[C@H](N4)[C@H]2[C@H](C)O3)c1C(F)(F)F (single isomer, unassigned) [143 (isomer 1)]",
    "Target Under Test": "KRAS WT (Homo sapiens (Human), UniProt P01116)",
    "IC50": "0.0281 µM"
  },
  {
    "Compound": "C[C@@H]1Oc2nc(-c3cc(N)nc4ccccc34)c(F)c3nc(OC[C@]45CCN4CC(F)(F)C5)nc(c23)N2C[C@H]3CC[C@H](N3)[C@@H]12 [Compound 79]",
    "Target Under Test": "KRAS WT (Homo sapiens (Human), UniProt P01116)",
    "IC50": "1.53 µM"
  },
  {
    "Compound": "C[C@@H]1Oc2nc(-c3[nH]c(=O)cc4ccccc34)c(F)c3nc(OC[C@@]45CCCN4C[C@H](F)C5)nc(c23)N2C[C@H]3CC[C@H](N3)[C@@H]12 [Compound 105]",
    "Target Under Test": "KRAS WT (Homo sapiens (Human), UniProt P01116)",
    "IC50": "9.7 µM"
  },
  {
    "Compound": "Cc1cc(N)c(F)c(-c2nc3c4c(ncnc4c2Cl)N2C[C@H]4CC[C@H](N4)[C@H]2[C@H](C)O3)c1C(F)(F)F (single isomer, unassigned) [Compound 95]",
    "Target Under Test": "KRAS WT (Homo sapiens (Human), UniProt P01116)",
    "IC50": "3.57 µM"
  },
  {
    "Compound": "Cc1c(F)c(N)cc(-c2nc3c4c(nc(OC[C@]56CCC[C@H]5N(C)CCC6)nc4c2F)N2C[C@H]4CC[C@H](N4)[C@H]2[C@H](C)O3)c1C(F)(F)F (single isomer, unassigned) [126 (isomer 4)]",
    "Target Under Test": "KRAS WT (Homo sapiens (Human), UniProt P01116)",
    "IC50": "0.0903 µM"
  }
]

Please look at this compound and report its IC50: Cc1c(F)c(N)cc(-c2nc3c4c(nc(OCC56COC(CN5C)C6)nc4c2F)N2C[C@H]4CC[C@H](N4)[C@H]2[C@H](C)O3)c1C(F)(F)F [Compound 132] 0.291 µM

Specify measured IC50 for C[C@@H]1Oc2nc(-c3nc(N)ccc3C(F)(F)F)c(F)c3nc(OC[C@@]45CCCN4C[C@H](F)C5)nc(c23)N2C[C@H]3CC[C@H](N3)[C@@H]12 [Compound 85] . 0.678 µM

Answer with the recorded IC50 of Cc1c(F)c(N)cc(-c2nc3c4c(nc(OCC5(CN6CCO[C@H](CF)C6)CC5)nc4c2F)N2C[C@H]4CC[C@H](N4)[C@H]2[C@H](C)O3)c1C(F)(F)F [Compound 171] only. 0.0137 µM

Supply recorded IC50 for C=C1CN2CCC[C@@]2(COc2nc3c4c(nc(-c5nc(N)cc(C)c5C(F)(F)F)c(F)c4n2)O[C@@H](C)[C@@H]2[C@@H]4CC[C@H](CN32)N4)C1 [Compound 48] here. 0.0285 µM
